biological target: mu opioid receptor (MOR) (Homo sapiens); assay: Hit Hunter cAMP signaling assay (adenylyl cyclase inhibition), PAM mode with EC20 endomorphin-1; type: cell-based; conditions: cAMP EC50, adenylyl cyclase inhibition
Sequence (P35372 whole entry): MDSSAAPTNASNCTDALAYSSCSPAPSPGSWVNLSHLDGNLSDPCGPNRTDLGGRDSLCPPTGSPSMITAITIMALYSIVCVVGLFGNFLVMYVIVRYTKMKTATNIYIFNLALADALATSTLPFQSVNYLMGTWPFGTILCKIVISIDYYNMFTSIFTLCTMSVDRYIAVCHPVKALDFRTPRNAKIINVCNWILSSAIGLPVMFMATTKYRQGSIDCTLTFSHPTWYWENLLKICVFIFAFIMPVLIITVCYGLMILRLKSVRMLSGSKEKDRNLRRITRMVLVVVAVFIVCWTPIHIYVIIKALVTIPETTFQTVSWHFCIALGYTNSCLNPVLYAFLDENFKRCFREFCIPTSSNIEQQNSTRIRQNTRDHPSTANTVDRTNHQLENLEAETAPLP
pEC50: −log10 of the molar value.
For each of the molecules below, state its pEC50.

q: Consider the molecule shown here: Fc1ccc(Cl)nc1N1CCCCC1c1ccc(C(F)(F)F)nc1 (centres unmarked) What is its recorded pEC50?
a: > 6.15

q: Consider the molecule shown here: FC(F)(F)c1cccc(C2CCCCN2Cc2cncc(Cl)c2)n1 (centres unmarked) What is its recorded pEC50?
a: < 5.68

q: Consider the molecule shown here: Fc1cnccc1C1CCCCN1c1nc(Cl)ncc1F (centres unmarked) What is its recorded pEC50?
a: > 6.15

q: Consider the molecule shown here: Fc1c(Cl)cccc1C1CCCCN1c1ccnc(Cl)n1 (centres unmarked) What is its recorded pEC50?
a: > 6.15

q: Consider the molecule shown here: Fc1cnc(Cl)nc1N1CCCCC1c1cncc(C(F)(F)F)c1 (centres unmarked) What is its recorded pEC50?
a: > 6.15

q: Consider the molecule shown here: Cc1cccc(C2CCCCN2c2nc(Cl)ncc2F)n1 (centres unmarked) What is its recorded pEC50?
a: > 6.15

q: Consider the molecule shown here: Fc1c(N2CCCCC2c2cccc(C(F)(F)F)c2)ccnc1Cl (centres unmarked) What is its recorded pEC50?
a: > 6.15

q: Consider the molecule shown here: Fc1cnc(Cl)nc1N1CCCCC1c1ccc2c(c1)CCO2 (centres unmarked) What is its recorded pEC50?
a: > 6.15

q: Consider the molecule shown here: Fc1cnc(Cl)nc1N1CCCCC1c1ccc2cncn2c1 (centres unmarked) What is its recorded pEC50?
a: > 6.15

q: Consider the molecule shown here: COc1ccc(C2CCCCN2c2nc(Cl)ncc2F)cc1C(F)(F)F (centres unmarked) What is its recorded pEC50?
a: < 5.68

q: Consider the molecule shown here: COc1ccc(C2CCCCN2S(=O)(=O)c2ccccc2)cc1Br (centres unmarked) What is its recorded pEC50?
a: < 5.68

q: Consider the molecule shown here: FC(F)(F)c1cccc(C2CCCCN2Cc2cccc(Cl)c2)c1 (centres unmarked) What is its recorded pEC50?
a: > 6.15

q: Consider the molecule shown here: Fc1cnc(Cl)nc1N1CCCCC1c1cccc2nccn12 (centres unmarked) What is its recorded pEC50?
a: < 5.68

q: Consider the molecule shown here: COc1ncc(F)c(N2CCCCC2c2ccc(F)c(Cl)c2)n1 (centres unmarked) What is its recorded pEC50?
a: < 5.68

q: Consider the molecule shown here: Fc1cnc(Cl)nc1N1CCCCC1c1cnc2ccccn12 (centres unmarked) What is its recorded pEC50?
a: > 6.15

q: Consider the molecule shown here: FC(F)(F)c1cccc(C2CCCCN2Cc2ccc(Cl)c(Cl)c2)n1 (centres unmarked) What is its recorded pEC50?
a: < 5.68

q: Consider the molecule shown here: COc1ccc(C2CCCCN2S(=O)(=O)C2CC2)cc1Br (centres unmarked) What is its recorded pEC50?
a: < 5.68

q: Consider the molecule shown here: COc1cnc(Cl)nc1N1CCCCC1c1cccc(C(F)(F)F)c1 (centres unmarked) What is its recorded pEC50?
a: > 6.15

q: Consider the molecule shown here: Fc1ccc(C2CCCCN2c2nc(Cl)ncc2F)cc1C(F)F (centres unmarked) What is its recorded pEC50?
a: > 6.15

q: Consider the molecule shown here: FC(F)(F)c1cccc(C2CCCCN2Cc2cccc(Cl)n2)n1 (centres unmarked) What is its recorded pEC50?
a: 5.68 to 6.15

Every entry's value here was drawn from patent US11071731B2.
